details: in ethanol, 313.15 K
Assay Endpoint: solubility (mole fraction)
// return a plain number; no unit text

Q: Please look at this compound and report its solubility (mole fraction): CO[C@H]1/C=C/O[C@@]2(C)Oc3c(C)c(O)c4c(O)c(c(/C=N/N5CCN(C6CCCC6)CC5)c(O)c4c3C2=O)NC(=O)/C(C)=C\C=C\[C@H](C)[C@H](O)[C@@H](C)[C@@H](O)[C@@H](C)[C@H](OC(C)=O)[C@@H]1C
A: 0.000651

---

settings: in ethanol, 293.15 K
Assay Endpoint: solubility (mole fraction)
Note: the reply should be a number with no unit written.

Q: # return recorded solubility (mole fraction) for entry CO[C@H]1/C=C/O[C@@]2(C)Oc3c(C)c(O)c4c(O)c(c(/C=N/N5CCN(C6CCCC6)CC5)c(O)c4c3C2=O)NC(=O)/C(C)=C\C=C\[C@H](C)[C@H](O)[C@@H](C)[C@@H](O)[C@@H](C)[C@H](OC(C)=O)[C@@H]1C
A: 0.000562
